Tested on: MCF7 breast
Experiment: NCI tumour cell line growth inhibition, 48 h
readout_name: TGI

Query: Which TGI reading was recorded for the molecule `C/C(COc1ccc2oc(-c3ccccc3)cc(=O)c2c1)=N\O` ?
Result: 36.7 µM

Query: What do you have for `COc1ccc2c(c1)/C(=C\c1c(-c3ccccc3)nc3sccn13)C(=O)N2` ?
Result: > 100 µM

Query: Note, next up: COc1ccc(CC2Cc3ccccc3CC(=O)N2)cc1OC (stereo unspecified)
Result: > 100 µM

Query: Now try `COc1cc(OCCCN2CCCC2)ccc1Nc1ncc(Cl)c(Nc2ccccc2P(C)(C)=O)n1` .
Result: 19.3 µM

Query: One more molecule: `NC1=Nc2ccccc2Sc2nccn21`
Result: > 100 µM

Proceeding to the next molecule to report its TGI.
Query: Entry under review: `O=P(O)(O)c1ccc2c(c1)OCCOCCOCCOCCO2` . Reported TGI?
Result: > 100 µM

---

Test system: SF-539 CNS
Assay: NCI tumour cell line growth inhibition, 48 h
As shown below, each of these compounds has a reported GI50 value.

Example entries begin here.
Query: Entry `C=C[C@@H]1CCC/C=C/[C@@H]2C[C@H](O)C[C@H]2[C@H](O)/C=C/C(=O)O1` , system SF-539 CNS: what GI50 was measured?
Result: 0.65 µM

Query: Now give it for `O=c1oc2ccc(F)cc2c(=O)n1-c1ccc(I)cc1F` too.
Result: 0.42 µM

Query: Next compound: `N#Cc1ccc2[nH]cc(Cc3c[nH]c4ccc(C#N)cc34)c2c1`
Result: 8.64 µM

***
Query: Short answer please: GI50, SF-539 CNS, entry `COc1cc(/C=C2\C(=O)Nc3ccc(Cl)cc32)cc(OC)c1OC`
Result: 16.8 µM

Query: Item: `C[C@]12CC[C@@H]3c4ccc(O)cc4CC[C@H]3[C@@H]1CC(Cc1ccccc1)(Cc1ccccc1)C2=O`
Result: 18.6 µM

Query: What about this compound? CCC(CO)Nc1nc(NCc2ccccc2)c2n[nH]c(C(C)C)c2n1 (centres undefined)
Result: 12.7 µM

Query: Another compound: Cn1cnc(SC2=CC(=O)C=C3S[C@H]4C[C@@]23c2c(c(O)c3c5c2=NCCC=5C=N3)N4)c1CC(N)C(=O)O (some centres undefined)
Result: 16.6 µM

Query: Check `O=c1cc(-c2ccccc2)oc2c(O)c(O)ccc12` too.
Result: 14.6 µM

Query: Try `COc1cc(/C=C2\C[C@H]3[C@@H]4CC=C5C[C@@H](O)CC[C@]5(C)[C@H]4CC[C@]3(C)[C@H]2O)ccc1OCCN1CCCCC1` next.
Result: 1.1 µM

---

System: KM12 colon
Test: NCI tumour cell line growth inhibition, 48 h
readout_name: GI50

Illustrative cases are given below, each with its answer.
Query: What value of measured GI50 is listed for `FC(F)(F)c1cccc(Oc2ccc(Nc3ncnc4ccc(OCCCN5CCOCC5)cc34)cc2Cl)c1` ?
Result: 2.29 µM

Query: Next: `CCOc1ccc(Nc2ccnc3cc(Cl)ccc23)cc1`
Result: 84.1 µM

Query: Next compound: `O=c1oc2ccc(F)cc2c(=O)n1-c1ccc(I)cc1F`
Result: 1.92 µM

Query: Try this compound too: `O=C(Nc1ccc(Cl)cc1)c1cc(NCc2cc(O)ccc2O)ccc1O`
Result: 3.33 µM

Please turn your attention to the following entry.
Query: Quick one: GI50 of `O=C1/C(=C/c2ccc(Cl)cc2)N=C(c2ccccc2)N1c1cc(C(F)(F)F)ccc1Cl` ?
Result: 21.9 µM

---

# TGI per record follows
System: SK-OV-3 ovarian
Test: NCI tumour cell line growth inhibition, 48 h

Examples with their reported TGI follow.
Query: Please tell me: TGI of `COc1ccc2c(c1)/C(=C\c1c(-c3ccccc3)nc3sccn13)C(=O)N2` , system SK-OV-3 ovarian?
Result: > 65.8 µM

Query: Request: `C[n+]1c2ccccc2n2c3ccccc3c(NCc3ccco3)c(C#N)c21`
Result: 39.8 µM

Query: Another: `COC1=CC(c2ccc[nH]2)=N/C1=C\c1[nH]c(C)c(CC(=O)NCc2ccccc2)c1C`
Result: 3.39 µM

Query: Also check `CCCC(=O)Oc1c2ccsc2c(OC(=O)CCC)c2ccsc12`
Result: 10.4 µM

# next compound below
Query: API: value(readout=TGI, system=SK-OV-3 ovarian) for record `CCOC(=O)c1ccc(Nc2nc3ccccc3n3cccc23)cc1`
Result: 92.4 µM

---

Below, each of the compounds is paired with its reported GI50 value.
Tested on: 786-0 renal
Experiment: NCI tumour cell line growth inhibition, 48 h

Query: For the compound shown here, `N[C@@H](Cc1c[nH]c2ccccc12)C(=O)NC1CCN(Cc2c[nH]c3ccc(Cl)cc23)CC1` , give the reported GI50.
Result: 11.4 µM

Query: // query: COc1cccc(C2SC(C)C(=O)N2NC(=O)C(O)c2ccccc2)c1 (stereo not given)
Result: > 100 µM

Query: Moving on to the next compound: Cn1cnc(SC2=CC(=O)C=C3S[C@H]4C[C@@]23c2c(c(O)c3c5c2=NCCC=5C=N3)N4)c1CC(N)C(=O)O (stereo not given in full)
Result: 13.6 µM

---

Listing: TGI of selected compounds
Tested on: SR leukemia
Experiment: NCI tumour cell line growth inhibition, 48 h

Here is how some compounds turned out for TGI.
Query: // returns reported TGI for input `COc1ccc2c(c1)/C(=C\c1c(-c3ccccc3)nc3sccn13)C(=O)N2`
Result: > 100 µM

Query: Moving on to the next compound: `COc1ccc2[nH]c3c(c2c1)CCc1c(OC)cccc1-3`
Result: > 100 µM

Query: Next record, please: `O=C(/C=C/c1ccc(-c2ccccc2)cc1)c1ccccc1`
Result: 87.1 µM

Continuing:
Query: Report TGI for `COc1cc(/C=C2\C[C@H]3[C@@H]4CC=C5C[C@@H](O)CC[C@]5(C)[C@H]4CC[C@]3(C)[C@H]2O)ccc1OCCN1CCCCC1` please.
Result: > 50 µM

Query: What do we get for Nc1ccc2nc3n(c2c1)C(c1c(F)cccc1F)SC3 (stereo unspecified) ?
Result: > 100 µM

Query: One more compound: C/C(=N\N)C(CN1CCOCC1)C(c1ccccc1)c1c(O)c2ccccc2oc1=O (stereo unspecified)
Result: > 100 µM

Query: Can you handle Cc1ccc(C(=O)C2C=C(c3ccc(C)cc3)SC3C=CCC32)cc1 (stereo unspecified) next?
Result: 58.2 µM

Query: Same read-out for `[Mn+3].[O-][Cl+3]([O-])([O-])O.[O-]c1ccccc1C=NCCN1CC1.[O-]c1ccccc1C=NCCN1CC1` ?
Result: 39.4 µM

Query: Same for `NC(CCl)=NCC12CC3CC(CC(C3)C1)C2`
Result: 0.706 µM

---

Test system: HCT-15 colon
Assay: NCI tumour cell line growth inhibition, 48 h
TGI values by entry

Examples from the recorded data:
Query: Bench note: what TGI did `C[C@H](CCC(=O)O)[C@H]1CC[C@H]2[C@@H]3[C@H](O)[C@H](O)[C@@H]4C[C@H](O)CC[C@]4(C)[C@H]3CC[C@]12C` show?
Result: > 100 µM

Query: Can you check Nc1ccc(C(=O)CC2(O)C(=O)Nc3ccccc32)cc1 (centres undefined) next?
Result: > 100 µM

Query: Try this compound next: CCCCSC1CCSc2c1ccc1ccccc21 (centres undefined)
Result: > 100 µM

Query: Now the compound `COc1cc(/C=C2\N=C(c3ccccc3)N(c3nc4ccccc4s3)C2=O)cc(OC)c1OC`
Result: > 100 µM

Query: Do the same for `Cc1ccc(F)c2[nH]c(-c3ccccc3)cc(=O)c12` please
Result: > 100 µM

Query: Repeat with `Cc1cc(C)n(CN(CCCCO)Cn2nc(C)cc2C)n1`
Result: 34.7 µM

***
Query: What does the record list as TGI for `OCC#Cc1ccccc1C#Cc1ccc(C#Cc2ccccc2C#CCO)cc1` ?
Result: > 100 µM

Query: // same read-out, input: `O=C(N/C(=C\c1cccc([N+](=O)[O-])c1)c1nc2c3c(ccc2[nH]1)C(=O)c1ccccc1C3=O)c1ccccc1`
Result: > 100 µM

Query: Now give it for `[Mn+3].[O-][Cl+3]([O-])([O-])O.[O-]c1ccccc1C=NCCN1CC1.[O-]c1ccccc1C=NCCN1CC1` too.
Result: 18.3 µM

---

Tested on: NCI-H226 lung
Assay: NCI tumour cell line growth inhibition, 48 h
Each entry below lists one item and its recorded TGI value.
I only need the number, in µM, no unit after it.

Query: Consider the molecule `CCCCNC(=O)Oc1ccc(/C(=C(\C)c2ccc(OC)cc2)c2ccc(OCCN3CCCCC3)cc2)cc1` and give its measured TGI.
Result: 27.9

Query: Then what about the molecule `O=CC1=CCCN(CCc2c[nH]c3ccccc23)C1` ?
Result: 102

Query: Moving on to the next molecule: `Cc1cc2c3c(nc2c2cc[nH]c(C)c12)CCCC3`
Result: 29.6

# input for lookup
Query: # input molecule: `CCN(CC)CCOCCOCC1(c2ccc(Cl)c(Cl)c2)CCCCC1` ; wanted: its TGI
Result: 35.1
